All values here come from the Human Domainome abundance scans (Beltran et al. 2025).

B1: Intersectin-2, residues 1129 to 1183; numbered along this chain, Q9NZM3 (parent)
chain: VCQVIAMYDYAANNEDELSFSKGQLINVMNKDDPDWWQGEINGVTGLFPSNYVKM

- Variants of: B1
- method: abundance fitness (aPCA) (normalised: wild type 0, dead -1); higher = more abundant; growth selection in yeast, the domain comes from the species named
- conditionLabel: Homo sapiens
Short version: abundance fitness at least -0.1 is label 1, less is label 0.

Take a look at these entries with their results.
| macromoleculeSequence | classLabel |
| --- | --- |
| VCQVIAMYDYTANNEDELSFSKGQLINVMNKDDPDWWQGEINGVTGLFPSNYVKM [A11T] | label 1 |
| VCQVIAMYDFAANNEDELSFSKGQLINVMNKDDPDWWQGEINGVTGLFPSNYVKM [Y10F] | label 1 |
| VCQVIAMYDYAANNEDELSFSKGQLINVMNKDHPDWWQGEINGVTGLFPSNYVKM [D33H] | label 1 |
| VCQVIAMYDYAANNEDELSFSKGQLINVMNKDDPDWWQGEIGGVTGLFPSNYVKM [N42G] | label 1 |
| VEQVIAMYDYAANNEDELSFSKGQLINVMNKDDPDWWQGEINGVTGLFPSNYVKM [C2E] | label 0 |

Request: Assess whether reported abundance fitness for VCQVIAMYDYAANNEDELSFSKGQLINVMNKDDPDWWPGEINGVTGLFPSNYVKM [Q38P] sits at -0.1 or higher.
Result: label 0

Request: Assess whether reported abundance fitness for VCQVIAMYDYAANNEDELSFSKGQLINVMNKDDPDWWQGEINGWTGLFPSNYVKM [V44W] sits at -0.1 or higher.
Result: label 0

Request: Assess whether reported abundance fitness for VCQVIAMYDYAANNEDELSFSKGQLINVMNKDDPDWWQGEIRGVTGLFPSNYVKM [N42R] sits at -0.1 or higher.
Result: label 1

Request: Assess whether reported abundance fitness for VCQVIAMYNYAANNEDELSFSKGQLINVMNKDDPDWWQGEINGVTGLFPSNYVKM [D9N] sits at -0.1 or higher.
Result: label 1

Request: Assess whether reported abundance fitness for VCQVIAMYDYAANNEDELSFSKGQLINVMNKDDPDWWQGEINGVAGLFPSNYVKM [T45A] sits at -0.1 or higher.
Result: label 1
